target: Class B β-lactamase (P. aeruginosa enzyme) (Pseudomonas aeruginosa); construct: Bacillus cereus, Pseudomonas aeruginosa and Aeromonas hydrophila; endogenous in cells; assay: Ki determination, initial rate of hydrolysis of reporter substrate cephalosporin C; settings: competitive inhibition; 1 mM cephalosporin C; 30° C., pH 6.5, 0.1 mM ZnCl2; read-out: Ki (inhibition constant)
Sequence (Q79MP6 19-246 limits assumed): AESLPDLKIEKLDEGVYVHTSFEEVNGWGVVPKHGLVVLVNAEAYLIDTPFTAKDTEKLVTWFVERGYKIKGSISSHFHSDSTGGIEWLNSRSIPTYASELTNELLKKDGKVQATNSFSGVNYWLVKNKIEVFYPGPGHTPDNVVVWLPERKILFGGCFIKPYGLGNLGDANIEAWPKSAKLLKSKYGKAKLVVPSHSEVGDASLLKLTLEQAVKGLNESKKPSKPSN

smilesInput: C[C@H](NC(=O)COc1ccccc1)[C@H](O)C(F)(F)F
Ki / µM: 400

smilesInput: C[C@H](NC(=O)COc1ccccc1)C(=O)C(F)(F)F
Ki / µM: 300

smilesInput: O=C(COc1ccccc1)N[C@H](Cc1ccccc1)[C@H](O)C(F)(F)F
Ki / µM: 60

smilesInput: C[C@@H](NC(=O)COc1ccccc1)[C@H](O)C(F)(F)F
Ki / µM: 400

smilesInput: O=C(COc1ccccc1)N[C@@H](Cc1ccccc1)C(=O)C(F)(F)F
Ki / µM: 530

smilesInput: C[C@@H](NC(=O)COc1ccccc1)C(=O)C(F)(F)F
Ki / µM: 500

smilesInput: O=C(COc1ccccc1)N[C@@H](Cc1ccccc1)[C@H](O)C(F)(F)F
Ki / µM: 900
